Assign glycan array binding signal (z-score) to each entry below.
# EXPERIMENTAL_SYSTEM: Gal(a1-4)Gal(b1-3)GlcNAc(b1-2)Man(a1-3)[Gal(a1-4)Gal(b1-3)GlcNAc(b1-2)Man(a1-6)]Man(b1-4)GlcNAc(b1-4)GlcNAc
# PROCEDURE_DETAILS: glycan array binding signal (z-score within array); higher = stronger binding
# CONDITION: glycan notation: IUPAC condensed, linker removed
This is one part of a sample in which the strongest signals are shown more often than they occur.
One number for each entry.

The following binders each have a reported value; give each one's glycan array binding signal (z-score).
1. Sp8391B-bot-388-20-388 (Bacteroides ovatus) (protein) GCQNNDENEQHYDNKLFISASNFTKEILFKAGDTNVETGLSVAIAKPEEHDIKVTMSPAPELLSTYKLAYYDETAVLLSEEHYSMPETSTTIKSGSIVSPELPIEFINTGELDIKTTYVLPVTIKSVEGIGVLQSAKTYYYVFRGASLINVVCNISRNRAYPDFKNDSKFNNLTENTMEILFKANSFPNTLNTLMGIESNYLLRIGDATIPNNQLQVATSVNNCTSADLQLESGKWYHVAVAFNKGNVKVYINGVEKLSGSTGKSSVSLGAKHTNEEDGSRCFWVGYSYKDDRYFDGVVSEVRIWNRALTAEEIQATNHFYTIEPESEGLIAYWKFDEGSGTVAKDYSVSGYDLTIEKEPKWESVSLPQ
2. XTP3-B-MRH2 (Homo sapiens), Q96DZ1 (protein) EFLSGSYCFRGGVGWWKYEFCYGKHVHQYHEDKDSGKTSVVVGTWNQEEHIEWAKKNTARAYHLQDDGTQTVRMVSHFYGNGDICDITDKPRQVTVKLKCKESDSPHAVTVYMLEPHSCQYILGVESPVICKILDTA
3. Tap1 (Sordaria macrospora), Q50IV4 (protein) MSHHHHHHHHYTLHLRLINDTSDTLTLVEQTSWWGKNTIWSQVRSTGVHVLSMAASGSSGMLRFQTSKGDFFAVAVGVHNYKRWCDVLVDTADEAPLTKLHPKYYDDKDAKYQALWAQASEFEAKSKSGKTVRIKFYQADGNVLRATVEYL
4. Gal 7 (Homo sapiens) (protein) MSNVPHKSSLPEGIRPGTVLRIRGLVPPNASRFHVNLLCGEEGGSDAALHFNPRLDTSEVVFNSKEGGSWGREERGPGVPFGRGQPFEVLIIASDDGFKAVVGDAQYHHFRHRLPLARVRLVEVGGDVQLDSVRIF

Reply text:
1. 2.6
2. 0.355
3. -0.221
4. -0.011
